The entries below are paired with their reported TGI.
# Test system: SK-OV-3 ovarian
# Experimental Details: NCI tumour cell line growth inhibition, 48 h
Measurement Kind: TGI

- Compound: "COc1cccc(C2C(C#N)=C(N)Oc3cc4c(cc32)OCO4)c1 (stereo not given)"
  Measurement Kind: "TGI"
  Assay Result: "4.71 µM"
- Compound: "COC(=O)CC1CC2(C(=O)OC)c3[nH]c4ccccc4c3CCN2C1=O (stereo not given)"
  Measurement Kind: "TGI"
  Assay Result: "> 100 µM"
- Compound: "CC(=O)OCC1OC(n2c(=S)n(-c3ccccc3)c(=O)c3cc(Br)cc(Br)c32)C(OC(C)=O)C(OC(C)=O)C1OC(C)=O (stereo not given)"
  Measurement Kind: "TGI"
  Assay Result: "> 100 µM"
- Compound: "O=S(=O)(O)c1cc(O)c(N=Nc2ccc3ccccc3c2O)c2ccccc12"
  Measurement Kind: "TGI"
  Assay Result: "> 100 µM"
- Compound: "Cc1cc2occ(S(=O)(=O)NC(=O)Nc3ccc(Cl)cc3)c(=O)c2c(=O)o1"
  Measurement Kind: "TGI"
  Assay Result: "> 100 µM"

====

# Tested on: ACHN renal
# Experimental Details: NCI tumour cell line growth inhibition, 48 h

- Compound: "CCSc1ncc(Br)c(Sc2nc(N)nc3nc[nH]c23)n1"
  TGI: "> 100 µM"
- Compound: "O=c1nc2[nH]c3c(-c4n[nH]c(=O)[nH]c4=O)cccc3c2n[nH]1"
  TGI: "> 100 µM"
- Compound: "CC(=O)N[C@@H](Cc1ccc(O)cn1)C(=O)NC1CCCCC1"
  TGI: "> 100 µM"
- Compound: "COc1cc(N(CCC#N)CCC#N)ccc1/C(N=Nc1ccc(C(=O)O)cc1)=N/NC(=O)c1cc(Br)ccc1O"
  TGI: "> 150 µg/mL"
- Compound: "COc1cc(/C=C\\c2cc(OC)c(OC)c(OC)c2)cc(NS(=O)(=O)c2ccc(Cl)cc2)c1OC"
  TGI: "29.9 µM"
- Compound: "NNC(=O)N/N=C1\\CN(c2ccc(Cl)cc2Cl)C(=O)C(=O)C1c1nc2ccccc2o1 (stereo not given)"
  TGI: "> 100 µM"
- Compound: "CCc1cc2c(c3c1CCCC3=O)CC1(C2)Cc2cc(CC)c3c(c2C1)C(=O)CCC3"
  TGI: "> 100 µM"
- Compound: "O=C(C(=O)c1cc(Br)ccc1O)c1cc(Br)ccc1O"
  TGI: "50 µM"
- Compound: "CC(=O)C(C(C)=O)[C@H]1OC(C)(C)O[C@H]1[C@H]1COC(C)(C)O1"
  TGI: "> 100 µM"
- Compound: "CC(C)=Nn1cnc2c1NC(C)(C)N=C2C(N)=O"
  TGI: "> 10 µM"
- Compound: "Cn1c(=O)c2c(nc(N/N=C3/SCC(=O)N3Cc3ccccc3)n2C)n(C)c1=O"
  TGI: "> 100 µM"
- Compound: "Nc1ccc(C(=O)/C=C/c2ccccc2O)cc1"
  TGI: "> 100 µM"
- Compound: "OCC#Cc1ccccc1C#Cc1ccc(C#Cc2ccccc2)cc1"
  TGI: "37 µM"
- Compound: "Cc1cc2c(cc1Cl)Sc1n[nH]c(=O)n1S2(=O)=O"
  TGI: "> 100 µM"
- Compound: "O=S(=O)(O)c1cc(O)c(N=Nc2ccc3ccccc3c2O)c2ccccc12"
  TGI: "> 100 µM"
- Compound: "O=c1[nH]c2ccc([N+](=O)[O-])cc2nc1/C(=N/Nc1ccccc1)C(O)c1ccco1 (stereo not given)"
  TGI: "> 100 µM"
- Compound: "COCC1N=C(c2cc(OC)c(OC)c(OC)c2-c2cc3c(cc2[C@H](C)O)OCO3)O[C@H]1c1ccccc1 (stereo not given in full)"
  TGI: "> 100 µM"
- Compound: "c1ccc2c3c([nH]c2c1)C1C2CCCCN2C(c2ccncc2)N1CC3 (stereo not given)"
  TGI: "> 100 µM"
- Compound: "C=CCOC(=O)N1c2ccc(O)cc2[C@@]23O[C@@]24[C@@H]1C#C/C=C\\C#C[C@]3(O)C(=O)C[C@@H]4C"
  TGI: "> 100 µM"
- Compound: "CCOC(=O)C1C(c2ccc(OC)cc2)c2c([nH]n(-c3ccccc3)c2=O)CC1(C)O (stereo not given)"
  TGI: "> 100 µM"

====

Catalogue of GI50 values
# Tested on: SK-OV-3 ovarian
# Experimental Details: NCI tumour cell line growth inhibition, 48 h

- Compound Smiles: "CC1=C(CNO)C2=C(C)C3(CC3)[C@@](C)(O)C(=O)C2=C1"
  GI50: "1.13 µM"
- Compound Smiles: "O=c1nc2[nH]c3c(-c4n[nH]c(=O)[nH]c4=O)cccc3c2n[nH]1"
  GI50: "> 100 µM"
- Compound Smiles: "COc1cc(/C=C2\\C(=O)N(C)c3ccccc32)cc(OC)c1OC"
  GI50: "20.9 µM"
- Compound Smiles: "NC(N)=N/N=C/c1c(-c2ccncc2)nc2sc(Cl)cn12"
  GI50: "22.4 µM"
- Compound Smiles: "O=C(/C=C(\\[O-])c1ccccc1)CCCCCCC(=O)/C=C(\\[O-])c1ccccc1.O=C(/C=C(\\[O-])c1ccccc1)CCCCCCC(=O)/C=C(\\[O-])c1ccccc1.O=C(/C=C(\\[O-])c1ccccc1)CCCCCCC(=O)/C=C(\\[O-])c1ccccc1.[Nd+3].[Nd+3]"
  GI50: "> 50 µM"

====

# Tested on: A498 renal
# Experimental Details: NCI tumour cell line growth inhibition, 48 h; in the data active = GI50 below about 0.43 µM; inactive = the rest
Outcomes: TRUE for active, FALSE for inactive

- Compound: "CC1=C(CNO)C2=C(C)C3(CC3)[C@@](C)(O)C(=O)C2=C1"
  Target: "A498 renal"
  Group: "FALSE"
- Compound: "CC1OC(OC2C(O[C@H]3CC[C@@]4(C)C(=CC[C@H]5[C@@H]6C[C@@H]7O[C@]8(CC[C@@H](C)CO8)[C@@H](C)[C@@H]7[C@@]6(C)CC[C@@H]54)C3)OC(CO)C(OC3OC(CO)C(O)C3O)C2O)C(O)C(O)C1O (stereo partly drawn)"
  Target: "A498 renal"
  Group: "FALSE"
- Compound: "C#CC#CC#CC#CC#CC#CC#CC#CC[C@@H]1OC[C@@H](COC(=O)O[C@@H](C(=O)O[C@H]2C[C@@]3(O)[C@@H](OC(=O)c4ccccc4)[C@@H]4[C@]5(OC(C)=O)CO[C@@H]5C[C@H](O)[C@@]4(C)C(=O)[C@H](OC(C)=O)C(=C2C)C3(C)C)[C@@H](NC(=O)c2ccccc2)c2ccccc2)O1"
  Target: "A498 renal"
  Group: "TRUE"
- Compound: "C=C1CC/C=C(\\C)CC[C@H](C(=C)C)[C@@H](O)/C=C(/CO)CCC1O (stereo partly drawn)"
  Target: "A498 renal"
  Group: "FALSE"
- Compound: "N/C(=N\\C(N)=N\\c1nc2ccccc2s1)c1cnccn1"
  Target: "A498 renal"
  Group: "FALSE"
- Compound: "CCN(CC)CCNc1ccc([N+](=O)[O-])c2sc3cc(Cl)ccc3c(=O)c12"
  Target: "A498 renal"
  Group: "FALSE"
- Compound: "O=C(N/N=C/c1ccc(F)cc1)c1ccc(C(F)(F)F)nc1Nc1cccc(C(F)(F)F)c1"
  Target: "A498 renal"
  Group: "FALSE"
- Compound: "CCSc1ncc(Br)c(Sc2nc(N)nc3nc[nH]c23)n1"
  Target: "A498 renal"
  Group: "FALSE"
- Compound: "O=C(c1ccccc1)C(Br)C(Br)c1ccccc1 (stereo not drawn)"
  Target: "A498 renal"
  Group: "FALSE"
- Compound: "COc1cccc(C2C(C#N)=C(N)Oc3cc4c(cc32)OCO4)c1 (stereo not drawn)"
  Target: "A498 renal"
  Group: "TRUE"
- Compound: "NC(=O)c1ncn(C2OC(CO)C(O)C2O)c1N (stereo not drawn)"
  Target: "A498 renal"
  Group: "FALSE"
- Compound: "NC(N)=N/N=C(/c1ccccc1)c1ccccc1F"
  Target: "A498 renal"
  Group: "FALSE"
- Compound: "COc1ccc(-c2cc(-c3ccccc3)nc(NCCNc3ccnc4cc(Cl)ccc34)n2)cc1"
  Target: "A498 renal"
  Group: "FALSE"
- Compound: "COc1ccc(/C=C/C(C)=N/OCC(=O)Nc2ccc(Cl)cc2)cc1"
  Target: "A498 renal"
  Group: "FALSE"
- Compound: "O=C(OC[C@@H]1CO1)c1cccc2c(=O)c3ccccc3[nH]c12"
  Target: "A498 renal"
  Group: "FALSE"
- Compound: "NC(N)=N/N=C/c1c(-c2ccncc2)nc2sc(Cl)cn12"
  Target: "A498 renal"
  Group: "FALSE"
- Compound: "CCN(CC)CCOc1ccc2c(C)c(C(=O)OC)oc2c1C(=O)/C=C/c1ccc(OC)cc1"
  Target: "A498 renal"
  Group: "FALSE"
- Compound: "COc1cc2c(cc1OCCCOc1ccc(-c3cc4ccccc4c4ccccc34)cc1)N=C[C@@H]1CCCN1C2=O"
  Target: "A498 renal"
  Group: "FALSE"
